- target-system: ecDHFR (wild-type, l-DHFR) (Escherichia coli)
- Sequence (P0ABQ4 1-159): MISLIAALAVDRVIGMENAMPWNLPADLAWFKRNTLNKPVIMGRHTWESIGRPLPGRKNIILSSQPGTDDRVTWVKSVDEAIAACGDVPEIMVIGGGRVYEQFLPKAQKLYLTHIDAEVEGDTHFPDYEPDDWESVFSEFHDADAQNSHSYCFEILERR
- assay-notes: stopped-flow tryptophan fluorescence quenching, koff/kon
- Format: binding
assay-metric: Kd

-- ask Quickly give me recorded Kd for Nc1nc2ncc(CNc3ccc(C(=O)N[C@@H](CCC(=O)O)C(=O)O)cc3)nc2c(=O)[nH]1 [FA]
-- reply 3.22 µM
